Assay: amyloid nucleation score (Sup35N fusion, yeast selection) (log enrichment); library NNK1; higher = more nucleation; inactive = no reads after selection;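 also: zero at mode of non-aggregating sequences after 7 days selection at 30°C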
endpoint_label: amyloid nucleation score

Use these answered entries as a reference point.
Quickly give me recorded amyloid nucleation score for IILRFVCDI
inactive

Quickly give me recorded amyloid nucleation score for MRVGIWDKMRSLRCDISAC
0.293

Quickly give me recorded amyloid nucleation score for AALVCPRFLTSKANFVPSKG
inactive

Quickly give me recorded amyloid nucleation score for FRVSSFWYWYVHLQGYYGTV
1.01

Quickly give me recorded amyloid nucleation score for YSWLVYNHNSDPGGSVCWSC
5.61

Quickly give me recorded amyloid nucleation score for SFFLIIVQREKRVRTSGCL
0.954

Continuing:
Quickly give me recorded amyloid nucleation score for YISDSLYGFDEVGRDWLRVA
-0.025

Quickly give me recorded amyloid nucleation score for LPCKIKKWIHWEFRSEFN
-2.06

Quickly give me recorded amyloid nucleation score for VVVIFLHGIWCGLRL
-0.208

Quickly give me recorded amyloid nucleation score for YEKMTRFNVGKCHMVHFSLP
-0.376

Quickly give me recorded amyloid nucleation score for VTQIKPVRRLGGL
-0.692

Quickly give me recorded amyloid nucleation score for RNYPTRPYRGVINHLGFCRV
-1.06

---

Assay: amyloid nucleation score (Sup35N fusion, yeast selection) (log enrichment); library NNK2; higher = more nucleation; inactive = no reads after selection
endpoint_label: amyloid nucleation score
Enter the number alone.

Use these answered entries as a reference point.
Quickly give me recorded amyloid nucleation score for ACNVILCVTNPTHNVIV
9.25

Quickly give me recorded amyloid nucleation score for QIACDCNLGGKWFTDMCYFA
-0.94

Quickly give me recorded amyloid nucleation score for GADGISCFGISDKLGYDKFL
-0.1

Turning now to a further substance:
Quickly give me recorded amyloid nucleation score for RLIKTHVVKLFQSRWWVIGD
0.631

---

Assay: amyloid nucleation score (Sup35N fusion, yeast selection) (log enrichment); library NNK3; higher = more nucleation; inactive = no reads after selection
endpoint_label: amyloid nucleation score

Use these answered entries as a reference point.
Quickly give me recorded amyloid nucleation score for KNKPEKRR
inactive

Quickly give me recorded amyloid nucleation score for VEHFNGHTRTVGCLFKRDLR
inactive

Quickly give me recorded amyloid nucleation score for WRSKLLM
inactive

Quickly give me recorded amyloid nucleation score for CLPSFRGFTTNIMGLIRSRV
inactive

Quickly give me recorded amyloid nucleation score for LFVLELVRIWVTYNWCSVSF
inactive

Quickly give me recorded amyloid nucleation score for TSFGMSTPCQAFARSVDDRG
inactive

Quickly give me recorded amyloid nucleation score for NVFLSRFMVMRKMVWFTEF
inactive

Quickly give me recorded amyloid nucleation score for MRYVHRCSRWYLLQQLLRIH
inactive

Turning now to a further substance:
Quickly give me recorded amyloid nucleation score for GKYSYLDIPTTIVYMFIH
1.44

---

Experiment: amyloid nucleation score (Sup35N fusion, yeast selection) (log enrichment); library NNK3; higher = more nucleation; inactive = no reads after selection
endpoint_label: amyloid nucleation score

Use these answered entries as a reference point.
Quickly give me recorded amyloid nucleation score for VEEYHNQ
0.858

Quickly give me recorded amyloid nucleation score for DDCIKPYSLIYTQRHTPRDI
inactive

Quickly give me recorded amyloid nucleation score for WDRSMMIAIDD
inactive

Quickly give me recorded amyloid nucleation score for YYFRPVSPRDLSQVDCRTDL
inactive

Quickly give me recorded amyloid nucleation score for WPYGIVTLRTWANYLGLFTL
-0.796

Turning now to a further substance:
Quickly give me recorded amyloid nucleation score for FGGVGAW
inactive
